Test: growth suppression of yeast trafficking mutant, preliminary HTS, modulators of trafficking downstream of Golgi apparatus project, 1536-format plate, OD 615 nm (AID 637); note: test concentration not given here
Settings: yeast transport mutant growth, absorbance 615 nm, 18 h; hits give high values
Answer each item with its documented inhibition.
Numeric answer only, unit % assumed.

## Task Dear colleague, please send me the reported inhibition for "O=C(CCSc1nc(-c2ccco2)cc(C(F)(F)F)n1)Nc1ccc2c(c1)OCO2" when you can.
## Result 3.81

## Task Dear colleague, please send me the reported inhibition for "O=C(NCCN1CCOCC1)c1ccc2c(c1)N(Cc1ccccc1)C(=O)CS2" when you can.
## Result -0.32

## Task Dear colleague, please send me the reported inhibition for "CSC1=NCCN1C(=O)c1ccc(S(=O)(=O)N2CCCC2)cc1" when you can.
## Result -3.17

## Task Dear colleague, please send me the reported inhibition for O=C1CCCC2=C1C(c1ccsc1)CC(=O)N2c1ccccc1 (stereo not drawn) when you can.
## Result -3.82

## Task Dear colleague, please send me the reported inhibition for CCOC(=O)C1=C(C)Nc2ncnn2C1c1cc(OC)ccc1OC (stereo not drawn) when you can.
## Result 1.17

## Task Dear colleague, please send me the reported inhibition for "CCOc1cc(C(=O)N(C)c2ccccc2)cc(OCC)c1OCC" when you can.
## Result -11.3

## Task Dear colleague, please send me the reported inhibition for "CC1(C)CNC(=O)CC(C)(C)N1O" when you can.
## Result 0

## Task Dear colleague, please send me the reported inhibition for "COC(=O)c1c(C#N)c(N)nc2c1CCC2" when you can.
## Result -4.13

## Task Dear colleague, please send me the reported inhibition for C=CCN1C(=O)C2(C(C#N)=C(N)Oc3n[nH]c(CCC)c32)c2ccccc21 (stereo not drawn) when you can.
## Result 0

## Task Dear colleague, please send me the reported inhibition for "Cc1cc(C(=O)CSCc2nnc3n(CCC(C)C)c(=O)c4ccccc4n23)c(C)n1C" when you can.
## Result -0.73

## Task Dear colleague, please send me the reported inhibition for "CCCOc1ccc(OCCSc2ncccn2)cc1" when you can.
## Result -0.79

## Task Dear colleague, please send me the reported inhibition for "O=C(Nc1ccc2c(c1)OCO2)c1cncc(Br)c1" when you can.
## Result 5.25

## Task Dear colleague, please send me the reported inhibition for "CC(=O)c1c(NCCc2ccccc2)cc(C)oc1=O" when you can.
## Result -4.83

###

Assay: growth suppression of yeast trafficking mutant, preliminary HTS, modulators of trafficking downstream of Golgi apparatus project, 1536-format plate, OD 615 nm (AID 637); note: test concentration not given here
Conditions: yeast transport mutant growth, absorbance 615 nm, 18 h; hits give high values
Answer each item with its documented inhibition.
Numeric answer only, unit % assumed.

## Task Dear colleague, please send me the reported inhibition for "CC1(C)CC(=O)C(CC2=C(O)CC(C)(C)CC2=O)=C(O)C1" when you can.
## Result -4

## Task Dear colleague, please send me the reported inhibition for "C=C(C)Cn1c(N2CCN(CC)CC2)nc2c1c(=O)[nH]c(=O)n2C" when you can.
## Result 6.39

## Task Dear colleague, please send me the reported inhibition for "CCCCn1c(SCC(=O)Nc2cc(C)on2)nnc1-c1cccnc1" when you can.
## Result 11

## Task Dear colleague, please send me the reported inhibition for "O=C(CN1CCCN(S(=O)(=O)c2ccc(Br)cc2)CC1)Nc1ccc2cn[nH]c2c1" when you can.
## Result 2.79

The measurements presented in this section are drawn from PubChem BioAssay.
